- Assay remarks: folding stability dG unfold (combined trypsin and chymotrypsin); higher = more stable
Classification field: enter true for folding stability dG unfold values not below -0.04 kcal/mol, false for values below it.

{"columns": ["Chain", "Answer label"],
 "data": [
  ["SAGGSAGGSAGIPNLIAYEVSKEGKPVKIIVKSPNGEEYEITVSPNESIPENIEILKVEVGSAGGSAGGSAG [r3_421_TrMRF]", "false"],
  ["SPVAVVTYEDGSVSEVPFTHPDGRAYDLSRGPGDVATLTVTRLLPDGSLEPLPTVPFTSEAEAEAYLAAASA [r9_942_JUSTAS]", "false"],
  ["SAGGSAGGSIKITIYDIMRMLGPNAPPAEWVEKVKHLAKWLADKLGLPDVEIEVEVMSPDQFPSAGGSAGGS [r12_666_TrROS]", "true"],
  ["SAGGSAGGSAGGSAMVYRTEVLVESEELPPPGVGGRLRREGEKVIVRKAPPEALEELGRSAGGSAGGSAGGS [r4_274_JUSTAS]", "false"],
  ["SAGGSAGVSTSKGSSVTTLKIDYKDDVVIKYSYNPSTGTVYTTVIDPETGNPVTVETYSVSPDVPLSAGGSA [r15_425_JUSTAS]", "true"],
  ["SAGMPLRTVKVLVTINDKTEEKTLSEEELKALIESGELELLGKEPEENIVYVYKKVPPPVGSKTKKSLLSAG [r5_868_JUSTAS]", "true"]
]}

# input for lookup
# bool: folding stability dG unfold of SVVTLEQVAELVEKGVELVAVLPDNRLLFYDPEREEPIELEVEEVPPPKPIFIEGGVESLEEALKFLEAESA [r9_649_TrMRF] >= -0.04 kcal/mol
false

====

- Assay remarks: folding stability dG unfold from trypsin proteolysis; higher = more stable
Entries and their folding stability dG unfold
Kindly answer with a numeric value in kcal/mol, unit omitted.

Some entries whose results are on file:
{"columns": ["Chain", "Measurement kind", "Quantitative result"],
 "data": [
  ["SAGGEELIKELLDKLPPDVKEATIEIEVDGKKVTLTVNEDGEVTLEVIDPETKEKKTFKIKNGKIEPVSAGG [r13_803_TrROS_Hall]", "folding stability dG unfold", 2.46],
  ["SAGGMKPGQPWHEIEVQREIDLPPGQISAEEIADLIAELFPGFRVEDFRIEFTGKKWRIDVTIYIPYSAGGS [r8_202_TrROS]", "folding stability dG unfold", 2.56],
  ["SAGGIIPIENASWDELLNALKEAAEKGDPNVTITFQDPGRPYWIQIDPDENNIEVEHPNGETWRFKISAGGS [r16_481_TrROS]", "folding stability dG unfold", 0.749],
  ["SAGGSAKKKEVKELTLVIKVKTEEEALKAAEELIRKLLPPDAEIVEVKVEKVKPGEVYITVKVRLKSAGGSA [r15_183_TrROS_Hall]", "folding stability dG unfold", 2.36],
  ["SAGGSAGSYLVRVRIRRPEDGKELADAVFEVPPDEPVTAEAILKELGIPPEEAKNIEIEVEVFELGSAGGSA [r15_665_TrMRF]", "folding stability dG unfold", 2.26]
]}

Sure, the documented folding stability dG unfold for SAGGSAMVETKTFEFEFEFEFENPDGEPATVTVPVTVEVPVLVPVAAPGPPGANGPEKELEELEKESAGGSA [r15_728_TrMRF] is 1.05

Briefly, folding stability dG unfold measured for SAGGSAGGSAGGMTLEIEINGLKVRIEFDEETKELRIEVEPAPPPVVVYEKEKLEEEEESAGGSAGGSAGGS [r10_724_TrROS_Hall] : 1.56

Record summary for SIKIRKEKTPNGYYEITFEFPFPDGWPMTIEANVQVDPENGKVKVDIKIEDPNLPPEFKEFIENFEFKVPSA [r9_715_TrROS] : reported folding stability dG unfold = 1.75

Value of measured folding stability dG unfold for the entry SAGGSAGGGPPSPVQTSTTSFSVSGDSSVTNVTVVTLPDGSLLVETTVFPSSGGSVSSLSSIPASAGGSAGG [r6_670_JUSTAS] : 1.27

Entry SSPIMIKMKDPDDREKIEKAVEEINDETGMSIRPESVDPNGKYTFMINMPPEHQKKILKALREAGNIEIVSA [r9_472_TrROS] — recorded folding stability dG unfold = 0.289

Note to self: folding stability dG unfold recorded for SPTVTETTLIASEEDPSSGVKTELTETTTIVKVGGTTTEVTTTTTTLTPEEDGKGTSTVTPSTTTTPIPASA [r9_375_JUSTAS] was 0.84

The sequence listed as SAGGSAGGSAGKWIMFDSPEDIEEKLKENGYRIKNIEPQKMGGGPHVYVPIEIKPPPEDKSAGGSAGGSAGG [r11_141_TrROS] shows folding stability dG unfold equal to -0.506

Value of measured folding stability dG unfold for the entry SAMKIKPGEKVKIKIEVKNKKTKKKKTIEIEVPVDEETGEVFTEDELKKLLEKLGIEVEEVKIVEIEKESAG [r14_93_TrROS_Hall] : 0.886

folding stability dG unfold for MEAEELATTLAAEALAPLPRPFEIDPENNEVRVPGGGELAELPIRVVLVDEDGEIVEERIVPVRIRAEEPGS [r1_318_TrMRF] is -0.362

Measured folding stability dG unfold, SAGGDYVKIDFTVMIPTPEQAEEMAEEIKNFFRFMGIKEVKIKVQRNPNNGMYYVTVDIEIRMPPGAVSAGG [r19_92_TrROS] : 3.34

Notebook: SAGGSAKILEEALEALKKAKPGEEVEIEIEIEVNGKKYRIKVKVTYDEETGKITIEIVEIEELPEESAGGSA [r15_724_TrROS_Hall] , folding stability dG unfold read as 3.23

====

- Assay remarks: folding stability dG unfold from chymotrypsin proteolysis; higher = more stable
Measurement kind: folding stability dG unfold (kcal/mol)
Dear colleague, please return just the value in kcal/mol, with no unit written.

{"columns": ["Chain", "Quantitative result"],
 "data": [
  ["SAGGSAKKPKPVKYNVVITLKDGKTITLTLPFGSLEKAKEFIEKNFPDAIVTYNPKTGNVTVYLPVSAGGSA [r15_313_TrMRF]", 3.54],
  ["SAGGSSVSSVTLLSSETYTEGEKTFKRTTYLVPLPDGTTAIVTTEETTPPENPPEVEVSSSTTPLPGSAGGS [r16_121_JUSTAS]", 1.78],
  ["SAGGSMTITITNEDGSTYEITVEEENGKLRITITVDGKTVEIEFDKETGKITIRYNGKTFTLTIKPSAGGSA [r2_194_TrROS_Hall]", 5.33]
]}

Moving on to the next sequence.
Entry under test: SAGGSGSSMSVSVSVTTSPVSVDPNKPVPIEVATTTTPVSSYDPVTGTSSTTTTTTTVPLGNPEAASAGGSA [r2_489_JUSTAS] . Its folding stability dG unfold was 1.42

====

- Assay remarks: folding stability dG unfold from chymotrypsin proteolysis; higher = more stable
Overview of reported folding stability dG unfold across a group of sequences:
Please state the figure in kcal/mol; there is no need to write the unit.

Use these answered entries as a reference point.
{"columns": ["Chain", "folding stability dG unfold, kcal/mol"],
 "data": [
  ["SAGGMTIFLPLENKEEVIEKLKKEGYKPVEVKEEGDVVTIKVEKKKDEKKEEITIVFYPPSKPEEPVSAGGS [r8_307_JUSTAS]", 2.59],
  ["SAGGMTITVRVKAENPEEAIKKVEETVRSLGYRVVELKEVEVRYDEATGEVFVEATVEVEPLPEEEGSAGGS [r16_155_TrMRF]", 4.81],
  ["SAGGKYGYKIEIEIAIFRIPPGAEVEPERIGNIEIYRIRFPDGNWLIMIRIKVKPMPPPPPEKKDNDDSAGG [r13_804_TrROS]", 4.7]
]}

Please fill in: folding stability dG unfold reported for SAGGSAGGSMWIVRIEYENPDNGKTYTIPIFVPPEDAEEIAKEIAEQLPGIKDIKVEIYPLNDSAGGSAGGS [r12_757_TrROS] = 2.22

GET /value?item= SAGGSAEITEIEIEEEGGRLRVRATVTNENGETFEFEAEIELPPPPPPEEVTLERDPETDEWKEVTSAGGSA [r15_335_TrROS_Hall] &field=folding stability dG unfold returns 2.39

folding stability dG unfold reported for this sequence SAGGSAGGSASMKVLEFPPDASIEEILEKIEKELGLSKEEIKNIKIEKIDDEEGSYKVIIESAGGSAGGSAG [r3_26_JUSTAS] : 2.62

Briefly, folding stability dG unfold measured for SSEILEKLAKELPDLEPVGVEEEPLPDGGRRLTLVARRPETGTYVRVTVDVPPGGGVASVEVEEVPVSRLSA [r9_274_JUSTAS] : 2.23

// folding stability dG unfold lookup, sequence = SAGGSAGGKKFKPGQVVLDPKTKELYVIKGEVTVKEDGSLSIKVEKVKLPKPKKLTKEQLEKLKSAGGSAGG [r6_771_TrROS_Hall] , result: 0.613
